Ref: patent US7220768B2

Tested on: VZV
Experiment: VZV antiviral assay (Table 2)
Assay type: cell-based, varicella zoster virus
Conditions: Human alphaherpesvirus 3

{"columns": ["compound", "measurement.target", "display.unit", "IC50"],
 "data": [
  ["CC(NC(=S)Nc1ccc(-c2conc2-c2ccnc3ccccc23)cc1)c1ccc(F)cc1 (centres unmarked)", "VZV", "µg/mL", 0.08],
  ["CC(NC(=S)Nc1ccc(-c2conc2-c2csnn2)cc1)c1ccc(F)cc1 (centres unmarked)", "VZV", "µg/mL", 0.13],
  ["CC(NC(=S)Nc1ccc(-c2conc2-c2ccncc2)cc1)c1ccc(F)cc1 (centres unmarked)", "VZV", "µg/mL", 0.14],
  ["CC(NC(=S)Nc1ccc(-c2conc2-c2ccc(O)cc2)cc1)c1ccc(F)cc1 (centres unmarked)", "VZV", "µg/mL", 0.61],
  ["CC(NC(=S)Nc1ccc(-c2conc2-c2ccccn2)cc1)c1ccc(F)cc1 (centres unmarked)", "VZV", "µg/mL", 0.18],
  ["CC(NC(=S)Nc1ccc(-c2conc2-c2ncc[nH]2)cc1)c1ccc(F)cc1 (centres unmarked)", "VZV", "µg/mL", 1],
  ["CC(NC(=S)Nc1ccc(-c2nocc2Cc2ccccc2)cc1)c1ccc(F)cc1 (centres unmarked)", "VZV", "µg/mL", 0.086],
  ["CC(NC(=S)Nc1ccc(-c2nocc2C(C)(C)C)cc1)c1ccc(F)cc1 (centres unmarked)", "VZV", "µg/mL", 0.23]
]}
